Provide the recorded Differences (Activity minus Prediction, milkshake) for the entries that follow.
reported.conditions: according to COSMO-RS correlation
Output: the number by itself.

Kindly indicate its recorded Differences (Activity minus Prediction, milkshake). Item: CC(C)CCOC(=O)c1ccccc1O [Isoamyl salicylate]
0.215

State, in one line, measured Differences (Activity minus Prediction, milkshake) of "OCCc1ccccc1"
0.225

Provide only the value of recorded Differences (Activity minus Prediction, milkshake) for CC(=O)OCC=C(C)C [Prenyl acetate]
−0.864

For CC(=O)OC(C)c1ccccc1 (stereo not shown) [Styrolyl acetate] , write its Differences (Activity minus Prediction, milkshake).
0.554

Read off the recorded Differences (Activity minus Prediction, milkshake) for "OCc1ccccc1"
−0.391

Supply Differences (Activity minus Prediction, milkshake) value. Item: "CCCCCC/C(C=O)=C\c1ccccc1"
−0.674

Identify measured Differences (Activity minus Prediction, milkshake) corresponding to C=CC(C)CCCC(C)(C)O (stereo not shown) [Dihydromyrcenol]
0.135

Return Differences (Activity minus Prediction, milkshake) (reported value) for this molecule: "O=c1ccc2ccccc2o1"
0.244

Please report the measured Differences (Activity minus Prediction, milkshake) for CC(C)=CCCC(C)CCO (stereo not shown)
0.138

Identify the reported Differences (Activity minus Prediction, milkshake) for the following entry. "C[C@@H]1CC[C@H]2C(C)(C)[C@H]3C[C@@]12CC[C@@]3(C)O"
−0.025

Identify measured Differences (Activity minus Prediction, milkshake) corresponding to CC(C=O)Cc1ccc(C(C)(C)C)cc1 (stereo not shown)
0.135

Specify reported Differences (Activity minus Prediction, milkshake) for the molecule shown: CC(=O)OCc1ccccc1 [Benzyl acetate]
0.515

Specify Differences (Activity minus Prediction, milkshake) for "CC(=O)/C=C/C1=C(C)CCCC1(C)C" and stop.
0.047

Quote Differences (Activity minus Prediction, milkshake) reported for C=CC(C)(O)CCC=C(C)C (stereo not shown) please.
−0.231

Quick one: give measured Differences (Activity minus Prediction, milkshake) for "C=CCc1ccc(O)c(OC)c1"
0.528

Tell me its Differences (Activity minus Prediction, milkshake) given CC(=O)O[C@@H]1C[C@H]2CC[C@]1(C)C2(C)C (racemic) [Isobornyl acetate] as the entry.
0.480

* * *

reported.conditions: according to COSMO-RS correlation
Kindly supply the reported Differences (Activity minus Prediction, lemonade) values for the records listed here.
Lab note: record the figure alone, no unit after it.

For the compound CC(=O)OCc1ccccc1 [Benzyl acetate] , give its measured Differences (Activity minus Prediction, lemonade) value.
0.552

Tell me its Differences (Activity minus Prediction, lemonade) given OCCc1ccccc1 [PEA, phenylethyl alcohol] as the entry.
0.272

Consider the compound C=C1C2CCC(C2)C1(C)C (stereo not drawn) [Camphene] and give its recorded Differences (Activity minus Prediction, lemonade).
−0.226

For the compound CC1=CCC(C(C)C)=CC1 [gamma-Terpinene] , give its reported Differences (Activity minus Prediction, lemonade).
0.411

// Input: CC(=O)OC(C)c1ccccc1 (stereo not drawn) [Styrolyl acetate] . Output its Differences (Activity minus Prediction, lemonade) only.
0.641

Identify measured Differences (Activity minus Prediction, lemonade) corresponding to O=c1ccc2ccccc2o1 [Coumarin]
0.162

Quick one: give measured Differences (Activity minus Prediction, lemonade) for C=CC(C)(O)CCC=C(C)C (stereo not drawn) [Linalool]
0.246

Please report the measured Differences (Activity minus Prediction, lemonade) for O=C(OCc1ccccc1)c1ccccc1O [Benzyl salicylate]
−0.340

Provide measured Differences (Activity minus Prediction, lemonade) value, entry: C=CC(C)CCCC(C)(C)O (stereo not drawn) [Dihydromyrcenol]
0.513

State its Differences (Activity minus Prediction, lemonade) for this compound: CC(CC=O)CCCC(C)(C)O (stereo not drawn) [Hydroxycitronellal]
−1.868

Entry CC(=O)OCC=C(C)C [Prenyl acetate] needs its Differences (Activity minus Prediction, lemonade) filled in; supply it.
−1.038

Give me measured Differences (Activity minus Prediction, lemonade), please, for this compound: CCOC(=O)c1ccccc1C(=O)OCC [Diethyl phthalate]
−1.693

State its Differences (Activity minus Prediction, lemonade) for this compound: CC(C)CCOC(=O)c1ccccc1O [Isoamyl salicylate]
0.201

Report measured Differences (Activity minus Prediction, lemonade); entry is CC(=O)/C=C/C1C(C)=CCCC1(C)C (stereo not drawn) [Ionone, α, Ionone, alpha]
−0.060

Give a short answer stating reported Differences (Activity minus Prediction, lemonade) for C=C(C)[C@H]1CC=C(C)CC1 [Limonene D] .
0.072
